# MEASURED_ON: UniProt P49840
# Sequence (P49840 whole entry): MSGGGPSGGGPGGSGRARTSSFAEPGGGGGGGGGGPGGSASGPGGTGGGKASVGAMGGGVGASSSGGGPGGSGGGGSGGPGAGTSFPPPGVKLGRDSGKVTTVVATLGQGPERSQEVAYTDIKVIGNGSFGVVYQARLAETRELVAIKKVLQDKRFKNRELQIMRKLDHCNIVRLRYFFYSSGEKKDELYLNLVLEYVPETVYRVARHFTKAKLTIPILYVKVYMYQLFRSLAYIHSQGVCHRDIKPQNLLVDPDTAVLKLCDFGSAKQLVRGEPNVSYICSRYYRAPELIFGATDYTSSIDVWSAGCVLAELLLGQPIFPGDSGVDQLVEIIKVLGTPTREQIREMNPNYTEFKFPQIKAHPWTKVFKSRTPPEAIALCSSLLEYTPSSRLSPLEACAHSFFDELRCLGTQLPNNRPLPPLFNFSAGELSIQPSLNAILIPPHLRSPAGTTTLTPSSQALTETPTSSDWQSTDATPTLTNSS
# TEST_DETAILS: Inhibition of human recombinant GSK3alpha by FRET assay
Here the recorded IC50 is given for each entry.
Numbers only; they are read as nM.

Reference set, count: 6
N#Cc1cccc(-c2ccc(CSc3nnc(-c4ccc5c(c4)OCO5)o3)cc2)c1 :: 4
COc1ccc(-c2ccc(CSc3nnc(-c4ccc5c(c4)OCCO5)o3)cc2)c(C#N)c1 :: 5
Fc1cc(F)cc(-c2ccc(CSc3nnc(-c4ccc5c(c4)OCCO5)o3)cc2)c1 :: 35
COc1ccc(-c2ccc(CSc3nnc(-c4ccc5c(c4)OCCO5)o3)cc2)cc1 :: 19
COc1ccc(-c2ccc(CSc3nnc(-c4ccc5c(c4)OCO5)o3)cc2)c(C#N)c1 :: 5
O=[N+]([O-])c1ccccc1-c1ccc(CSc2nnc(-c3ccc4c(c3)OCCO4)o2)cc1 :: 4

Consider the compound c1ccc(-c2ccc(CSc3nnc(-c4ccncc4)o3)cc2)cc1 and give its measured IC50.
52

Consider the compound O=[N+]([O-])c1cccc(-c2ccc(CSc3nnc(-c4ccc5c(c4)OCCO5)o3)cc2)c1 and give its measured IC50.
15

Consider the compound O=[N+]([O-])c1ccccc1-c1ccc(CSc2nnc(-c3ccncc3)o2)cc1 and give its measured IC50.
27

Consider the compound CC(=O)Nc1cc(-c2nnc(SCc3cccc(C#N)c3)o2)ccn1 and give its measured IC50.
17

Consider the compound Fc1cc(F)cc(-c2ccc(CSc3nnc(-c4ccc5c(c4)OCO5)o3)cc2)c1 and give its measured IC50.
51

Consider the compound c1ccc(-c2ccc(CSc3nnc(-c4ccc5c(c4)OCCO5)o3)cc2)cc1 and give its measured IC50.
51

Consider the compound COc1ccc(-c2ccc(CSc3nnc(-c4ccc5c(c4)OCO5)o3)cc2)cc1 and give its measured IC50.
7

Consider the compound N#Cc1cccc(-c2ccc(CSc3nnc(-c4ccncc4)o3)cc2)c1 and give its measured IC50.
46

Consider the compound N#Cc1cccc(-c2ccc(CSc3nnc(-c4ccc5c(c4)OCCO5)o3)cc2)c1 and give its measured IC50.
9

Consider the compound COc1ccc(-c2ccc(CSc3nnc(-c4ccncc4)o3)cc2)cc1 and give its measured IC50.
240

Consider the compound N#Cc1cc(F)ccc1-c1ccc(CSc2nnc(-c3ccncc3)o2)cc1 and give its measured IC50.
324

The reported numbers originate from ChEMBL document CHEMBL2390816.
